Recorded measurements of HDAC6 activity raw data (signal), one per entry
- targetOrSystem: HDAC6 (Homo sapiens, UniProt Q9UBN7)
- Construct: purchased Reaction Biology Corporation (assay run by the CRO)
- Sequence (Q9UBN7 whole entry): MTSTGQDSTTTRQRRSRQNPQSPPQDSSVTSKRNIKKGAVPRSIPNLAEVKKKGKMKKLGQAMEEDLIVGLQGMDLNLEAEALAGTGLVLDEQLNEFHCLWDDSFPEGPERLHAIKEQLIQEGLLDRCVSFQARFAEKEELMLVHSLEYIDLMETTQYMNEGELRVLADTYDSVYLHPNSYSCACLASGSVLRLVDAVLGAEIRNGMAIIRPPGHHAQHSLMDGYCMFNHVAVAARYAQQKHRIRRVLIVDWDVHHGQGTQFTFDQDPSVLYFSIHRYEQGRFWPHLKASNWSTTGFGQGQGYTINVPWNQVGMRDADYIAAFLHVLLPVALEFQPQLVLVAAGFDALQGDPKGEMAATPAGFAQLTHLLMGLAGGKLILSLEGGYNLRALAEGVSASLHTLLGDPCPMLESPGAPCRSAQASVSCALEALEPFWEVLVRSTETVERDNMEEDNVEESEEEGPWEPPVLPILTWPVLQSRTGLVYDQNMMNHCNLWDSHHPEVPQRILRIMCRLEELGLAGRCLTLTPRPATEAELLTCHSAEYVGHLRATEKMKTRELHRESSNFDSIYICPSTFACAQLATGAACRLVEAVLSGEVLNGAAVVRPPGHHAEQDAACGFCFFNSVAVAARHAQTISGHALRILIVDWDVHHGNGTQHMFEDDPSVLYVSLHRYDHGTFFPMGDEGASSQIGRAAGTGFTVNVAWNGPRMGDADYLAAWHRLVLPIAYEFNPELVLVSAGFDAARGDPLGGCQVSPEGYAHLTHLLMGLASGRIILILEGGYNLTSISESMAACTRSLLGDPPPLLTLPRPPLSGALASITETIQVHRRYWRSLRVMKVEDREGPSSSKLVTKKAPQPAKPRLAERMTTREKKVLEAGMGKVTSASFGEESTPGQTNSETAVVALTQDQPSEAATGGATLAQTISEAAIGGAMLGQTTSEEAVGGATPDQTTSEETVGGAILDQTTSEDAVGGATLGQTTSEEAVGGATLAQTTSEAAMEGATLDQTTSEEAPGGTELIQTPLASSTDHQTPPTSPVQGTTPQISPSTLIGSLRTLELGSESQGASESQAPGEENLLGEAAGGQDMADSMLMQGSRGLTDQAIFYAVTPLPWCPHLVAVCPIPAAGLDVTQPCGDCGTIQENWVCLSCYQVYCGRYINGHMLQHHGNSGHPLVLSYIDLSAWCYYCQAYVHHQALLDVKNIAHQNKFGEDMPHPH
- assayNotes: HDAC6 inhibition, full IC50 measurement (Reaction Biology; fluorogenic p53 peptide RHKK(Ac)AMC)
- Assay type: biochemical
- testParameters: Conc. 1.37E-08 M, t2
Peptide text beside a SMILES is read from it.
parameter: HDAC6 activity raw data (signal)

1) CCCC[C@H]1NC(=O)[C@H](Cc2ccccc2)NC(=O)[C@H](CCCCCS)NC(=O)[C@@H](CCCNC(=N)N)NC(=O)[C@H](CC(=O)O)NC(=O)[C@@H](CO)NC(=O)[C@@H](C)NC(=O)[C@H](CCCCN)NC1=O [des4.3.1, SHA-Phe-dNle-Lys-dAla-dSer-Asp-dArg] (HELM PEPTIDE1{D.[dR].[O=C([C@H](CCCCCS)N[*:1])[*:2]].F.[CCCC[C@@H](N[*:1])C(=O)[*:2]].K.[dA].[dS]}$PEPTIDE1,PEPTIDE1,1:R1-8:R2$$$V2.0) : 326589
2) NCCCC[C@@H]1NC(=O)[C@@H]2CCCN2C(=O)[C@H](CC(N)=O)NC(=O)[C@H](CCCCCS)NC(=O)CNC(=O)[C@H](Cc2c[nH]c3ccccc23)NC(=O)[C@@H](CCCCN)NC(=O)[C@H](CCC(N)=O)NC1=O [des1.1.0, SHA-Asn-Pro-Lys-Gln-dLys-Trp-Gly] (HELM PEPTIDE1{G.[O=C([C@H](CCCCCS)N[*:1])[*:2]].N.P.K.Q.[dK].W}$PEPTIDE1,PEPTIDE1,1:R1-8:R2$$$V2.0) : 374868
